Would you mind telling me the reported self-splicing fitness (ln) of each entry?
assay: self-splicing fitness, log relative to wild type (ln ratio); higher = more splicing; Tetrahymena group I intron in knt gene, E. coli kanamycin selection, DiMSum; sequences stand for … in CUCUCU…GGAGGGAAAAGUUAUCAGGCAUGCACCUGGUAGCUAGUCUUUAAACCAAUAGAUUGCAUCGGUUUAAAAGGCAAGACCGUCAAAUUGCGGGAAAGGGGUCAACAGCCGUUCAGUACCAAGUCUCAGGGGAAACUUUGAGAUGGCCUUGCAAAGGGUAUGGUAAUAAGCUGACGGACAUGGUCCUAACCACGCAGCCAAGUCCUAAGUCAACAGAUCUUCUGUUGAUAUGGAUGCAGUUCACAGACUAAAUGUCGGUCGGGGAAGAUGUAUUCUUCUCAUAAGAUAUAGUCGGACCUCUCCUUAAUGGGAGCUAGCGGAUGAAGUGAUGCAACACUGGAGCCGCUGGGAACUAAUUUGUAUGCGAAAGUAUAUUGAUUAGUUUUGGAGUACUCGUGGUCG; conditions: 30 °C;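 also: selection with 25 µg/mL kanamycin versus none on LB agar overnight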

q: Given "GCUGAGCAAUAUUACGAUUC" , state its recorded self-splicing fitness (ln).
a: -0.602

q: Further, for "AGAAAGCAAUAUUACGCCUU" ?
a: -1.29

q: Further, for "CGAUAGCAAUAUUACGCAAA" ?
a: -2.98

q: Further, for "CUGCAGCAAUAUUACGUUUA" ?
a: -2.64

q: Further, for "UCCCAGCAAUAUUACGCUAA" ?
a: -1.75

q: Further, for "AACCAGCAAUAUUACGAUCC" ?
a: -0.433

q: Further, for "GCGUAGCAAUAUUACGAGGG" ?
a: -3.37

q: Further, for "CCUCAGCAAUAUUACGAGAU" ?
a: -3.32

q: Further, for "AUACAGCAAUAUUACGUACA" ?
a: -0.262

q: Further, for "UGUUAGCAAUAUUACGUAAC" ?
a: -1.65

q: Further, for "ACCUAGCAAUAUUACGUCUA" ?
a: -2.44

q: Further, for "GAGUAGCAAUAUUACGCAGU" ?
a: -3.14

q: Further, for "GGCCAGCAAUAUUACGUAGA" ?
a: -1.59

q: Further, for "UGUUAGCAAUAUUACGCCUU" ?
a: -0.953

q: Further, for "GGGAAGCAAUAUUACGCCGA" ?
a: -1.78

q: Further, for "CUCCAGCAAUAUUACGGUAG" ?
a: -3.88

q: Further, for "CCCGAGCAAUAUUACGAGGG" ?
a: -4.84

q: Further, for "CCUAAGCAAUAUUACGCAGC" ?
a: -3.07

q: Further, for "CACGAGCAAUAUUACGUCUU" ?
a: -2.89

q: Further, for "CAUCAGCAAUAUUACGUCCC" ?
a: -2.53

q: Further, for "GUACAGCAAUAUUACGGCGU" ?
a: -0.577

q: Further, for "AAUAAGCAAUAUUACGACUC" ?
a: 0.0667

q: Further, for "CUACAGCAAUAUUACGUCCG" ?
a: -0.955

q: Further, for "UGUCAGCAAUAUUACGUGCU" ?
a: -3.51

q: Further, for "AGAAAGCAAUAUUACGCUAA" ?
a: -2.38

q: Further, for "CACCAGCAAUAUUACGCAGU" ?
a: -3.61

q: Further, for "UCCAAGCAAUAUUACGCCAA" ?
a: -2.68

q: Further, for "AGUGAGCAAUAUUACGACAA" ?
a: -2.34

q: Further, for "GAGUAGCAAUAUUACGGAUU" ?
a: -1.41

q: Further, for "CUCGAGCAAUAUUACGGCUU" ?
a: -2.57

q: Further, for "GCCUAGCAAUAUUACGUCUC" ?
a: -0.71

q: Further, for "ACGAAGCAAUAUUACGCCCA" ?
a: -1.11

q: Further, for "CGUCAGCAAUAUUACGGGCU" ?
a: -1.31

q: Further, for "CGACAGCAAUAUUACGGGAU" ?
a: -3.98
